Recorded values, source patent US6849732B2.

In what follows, each item is paired with its log10(Ki) for Coll3 (Homo sapiens, UniProt P45452).
Structures can show the parent of a compound that is named as a salt.
Values reflect log10 of reported Ki (nM).

## Input // lookup log10(Ki) | system=Coll3 (Homo sapiens, UniProt P45452) | key= `O=C1C[C@H](C(=O)NO)N(S(=O)(=O)c2ccc(Oc3ccccc3)cc2)CN1`
## Output -0.91

## Input Now this one: CC(C)(C)OC(=O)N1CCN(S(=O)(=O)c2ccc(Oc3ccc(C#N)cc3)cc2)C(C(=O)NO)C1 (racemic)
## Output 0.29

## Input Now this one: Cl.O=C(NO)C1CNCCN1S(=O)(=O)c1ccc(Oc2ccc(Br)cc2)cc1 (racemic) [5(a), hydrochloride]
## Output 0.04

## Input Now this one: CNC(=O)N1CCN(S(=O)(=O)c2ccc(Oc3ccc(Cl)cc3)cc2)C(C(=O)NO)C1 (racemic)
## Output -1.80

## Input Now this one: `CC1(C)[C@H](C(=O)NO)N(S(=O)(=O)c2ccc(Oc3ccc(Br)cc3)cc2)CC[S@@+]1[O-]`
## Output -2.00

## Input Now this one: `CC1(C)SCCN(S(=O)(=O)c2ccc(Oc3ccccn3)cc2)[C@H]1C(=O)NO`
## Output -1.13

## Input Now this one: `CS(=O)(=O)N1CCN(S(=O)(=O)c2ccc(Oc3ccc(Cl)cc3)cc2)[C@@H](C(=O)NO)C1`
## Output -2.70

## Input Now this one: O=C(NO)[C@H]1CNCCN1S(=O)(=O)c1ccc(Oc2ccc(Cl)cc2)cc1 [Example 10(a), hydrochloride]
## Output -0.44

---

In what follows, each item is paired with its Ki for matrilysin (Matr.) (Homo sapiens, UniProt P09237).
Counter-ions that a name gives are not always drawn.
API: value field is a number in µM; no unit string.

## Input // lookup Ki | system=matrilysin (Matr.) (Homo sapiens, UniProt P09237) | key= O=C(NO)[C@@H]1C[S@+]([O-])CCN1S(=O)(=O)c1ccc(Oc2ccc(Br)cc2)cc1 (racemic) [Example 14(a)]
## Output 0.109

## Input Now this one: Cl.O=C(NO)C1CNCCN1S(=O)(=O)c1ccc(Oc2ccc(Br)cc2)cc1 (racemic) [5(a), hydrochloride]
## Output 0.263

## Input Now this one: CC(C)(C)OC(=O)N1CCN(S(=O)(=O)c2ccc(Oc3ccc(Cl)cc3)cc2)[C@@H](C(=O)NO)C1 [Example 9(a)]
## Output 0.142

## Input Now this one: CS(=O)(=O)N1CCN(S(=O)(=O)c2ccc(Oc3ccc(F)cc3)cc2)[C@@H](C(=O)NO)C1 [Example 12(b)]
## Output 0.052

## Input Now this one: CC(C)(C)OC(=O)N1CCN(S(=O)(=O)c2ccc(Oc3ccccn3)cc2)C(C(=O)NO)C1 (racemic) [Example 9(d)]
## Output 2.85

## Input Now this one: CC1(C)SCCN(S(=O)(=O)c2ccc(Oc3ccc(-n4ccnc4)cc3)cc2)[C@H]1C(=O)NO [3(a)]
## Output 0.005

## Input Now this one: O=C(NO)C1CSCCN1S(=O)(=O)c1ccc(Oc2ccccc2)cc1 (racemic) [Example 13(b)]
## Output 0.201

## Input Now this one: O=C(NO)C1CNCCN1S(=O)(=O)c1ccc(Oc2ccccc2)cc1 (racemic) [Example 5(b)]
## Output 0.56

## Input Now this one: COc1ccc(Oc2ccc(S(=O)(=O)N3CCN(S(C)(=O)=O)CC3C(=O)NO)cc2)cc1 (racemic) [Example 12(c)]
## Output 0.074

## Input Now this one: CCOC(=O)CN1CCN(S(=O)(=O)c2ccc(Oc3ccc(Cl)cc3)cc2)[C@@H](C(=O)NO)C1 [Example 11(c), hydrochloride]
## Output 0.24

## Input Now this one: CNC(=O)N1CCN(S(=O)(=O)c2ccc(Oc3ccc(Cl)cc3)cc2)C(C(=O)NO)C1 (racemic) [Example 6(a)]
## Output 0.109

## Input Now this one: O=C(NO)C1C[S+]([O-])CCN1S(=O)(=O)c1ccc(Oc2ccc(F)cc2)cc1 (racemic) [Example 14(b)]
## Output 0.306

## Input Now this one: O=C1C[C@H](C(=O)NO)N(S(=O)(=O)c2ccc(Oc3ccccc3)cc2)CN1 [Example 15(a)]
## Output 1.3

## Input Now this one: CC1(C)SCCN(S(=O)(=O)c2ccc(Oc3ccccn3)cc2)[C@H]1C(=O)NO [Example 18(b)]
## Output 0.07

## Input Now this one: O=C(NO)[C@H]1CNCCN1S(=O)(=O)c1ccc(Oc2ccc(Cl)cc2)cc1 [Example 10(a), hydrochloride]
## Output 0.171
